- measurement-notes: in vivo
- Set-up: species or system mice
- condition-label: male, NOD.Cg-Rag1tm1Mom Il2rgtm1Wjl/SzJ (NRG), mouse, iv, total radioactivity, Ratio Tumor-to-Blood
Where a SMILES comes first, the peptide text is derived from it. Bridges are numbered along the chain shown (N, C = ends). [ ]: non-standard residue; d: D form. The star is where a group is joined. X1 = O=C(O)CN1CCN(CC(=O)O)CCN(CC(=O)N[C@@H](CS(=O)(=O)O)C(=O)N[C@@H](CCCCNC(=O)CCCc2ccc(I)cc2)C(=O)*)CCN(CC(=O)O)CC1; 2Nal = N[C@@H](Cc1ccc2ccccc2c1)C(=O)O; Lys(iPr) = CC(C)NCCCC[C@H](N)C(=O)O
For each record, write down the corresponding tissue to tissue ratio at 1 h.
One number for each entry.

Prompt: Which tissue to tissue ratio at 1 h is reported for this compound? CC(C)NCCCC[C@H](NC(=O)[C@H]1CCC(=O)N[C@@H](CCCCNC(=O)[C@H](CCCCNC(=O)CCCc2ccc(I)cc2)NC(=O)[C@H](CS(=O)(=O)O)NC(=O)CN2CCN(CC(=O)O)CCN(CC(=O)O)CCN(CC(=O)O)CC2)C(=O)N[C@@H](Cc2ccc(O)cc2)C(=O)N[C@@H](CCCCNC(C)C)C(=O)N[C@H](CCCNC(=N)N)C(=O)N[C@@H](Cc2ccc3ccccc3c2)C(=O)N[C@H](C)C(=O)N1)C(N)=O [[^68Ga]Ga-BL34L11, metal not drawn] (K(X1)Y[Lys(iPr)][dR][2Nal][dA][dE][Lys(iPr)]-NH2; lactam N-7)
Response: 0.35

***
Prompt: Please give the measured tissue to tissue ratio at 1 h for this compound: CC(C)NCCCC[C@H](NC(=O)[C@@H]1CCSc2c3cccc([N+](=O)[O-])c3cn2[C@@H](CCCCNC(=O)[C@H](CS(=O)(=O)O)NC(=O)CN2CCN(CC(=O)O)CCN(CC(=O)O)CCN(CC(=O)O)CC2)C(=O)CC(Cc2ccc(O)cc2)C(=O)N[C@@H](CCCCNC(C)C)C(=O)N[C@H](CCCNC(=N)N)C(=O)N[C@@H](Cc2ccc3ccccc3c2)C(=O)N[C@H](C)C(=O)N1)C(N)=O (some centres unmarked) [[^68Ga]Ga-3NOPA-BL34L2, metal not drawn]
Response: 10.4

Each recorded value in this set is attributed to patent US20250242064A1.
